System: RPMI-8226 leukemia
measurement.notes: NCI tumour cell line growth inhibition, 48 h
measured.property: GI50

Entry `CC(C)Nc1ccc(Nc2ccccc2)cc1` ; GI50 = 3.68 µM

Entry O=C1C2C(C(=O)[N]1[Hg][c]1cccs1)C1(Cl)C(Cl)=C(Cl)C2(Cl)C1(Cl)Cl (stereo unspecified) ; GI50 = 1.41 µM

Entry `Cn1cc(C2=C(c3cn(CCO)c4ccccc34)C(=O)NC2=O)c2ccccc21` ; GI50 = 5.33 µM

Entry COc1cc2c(cc1OCCCCCOc1cc3c(cc1OC)C(=O)N1CC(F)C[C@H]1C=N3)N=C[C@@H]1CC(F)CN1C2=O (stereo partly specified) ; GI50 = < 0.0151 µM

====

Listing: TGI of selected compounds
System: SNB-19 CNS
measurement.notes: NCI tumour cell line growth inhibition, 48 h

Entry CCOC(O)(NC(=O)C(C(F)(F)F)C(F)(F)F)C(F)(F)F (stereo unspecified) ; TGI = > 100 µM

Entry `Cn1ccc(C(=O)N2CCSC2=S)c(OCc2ccccc2)c1=O` ; TGI = > 100 µM

Entry CC(=O)Oc1cc(C)c2c(c1OC(C)=O)CC1(O2)[C@@H](C)CCC2[C@@]3(C)CC[C@H](OC(C)=O)C(C)(C)C3CC[C@]21C (stereo partly specified) ; TGI = 29.8 µM

Entry CO/C=C(/C(=O)OC)c1ccccc1[C@@H]1CC1c1cccc(F)c1 (stereo partly specified) ; TGI = > 100 µM

Entry `N#Cc1n[nH]n(C2CCCCC2)c1=O` ; TGI = > 100 µM

Entry `CCOC(=O)[C@]12C(=C(c3ccccc3)O[C@H]3C=CCC[C@H]31)C(=O)C(=O)N2c1ccccc1` ; TGI = > 100 µM

Entry N#CC(/C(=N/NC(=O)C(=O)NN)C(=O)Nc1nc([N+](=O)[O-])cs1)c1ccc(Cl)cc1 (stereo unspecified) ; TGI = > 100 µM

Entry OC1(c2ccc(Cl)cc2)c2c(ccc3c2OCO3)C2=NCCN21 (stereo unspecified) ; TGI = > 100 µM

Next:
Entry COc1cc(C(=O)N2N=C(c3ccc(S(C)(=O)=O)cc3)CC2c2ccco2)cc(OC)c1OC (stereo unspecified) ; TGI = > 100 µM

Entry O=S(=O)(N/N=C1\CC2CCC1C2)c1ccccc1 (stereo unspecified) ; TGI = > 100 µM

Entry NC(=O)c1cccc(C2OC(COP(=O)(O)O)C(O)C2O)c1 (stereo unspecified) ; TGI = > 50 µM

====

System: HOP-92 NSCLC
measurement.notes: NCI tumour cell line growth inhibition, 48 h
Listing: GI50 of selected compounds

Below, 2 compounds whose answers are already recorded.
Entry `N#Cc1ncc(-c2ccc(C(F)(F)F)cc2)c(NCc2cc(C(F)(F)F)cc(C(F)(F)F)c2)n1` ; GI50 = 2140 nM

Entry `N#C/C(=N\Nc1ccc(Cl)cc1)C(=O)Nc1cc(-c2ccccc2)nn1-c1ccccc1` ; GI50 = 1070 nM

Consider the record given below.
Entry `CC(C)[C@H]1CC[C@H]2[C@@H](CC[C@H]3[C@](C)(CN)CCC[C@]23C)C1` ; GI50 = 1220 nM

====

Listing: TGI of selected molecules
System: M14 melanoma
measurement.notes: NCI tumour cell line growth inhibition, 48 h

Entry `COc1ccc(/C(Cl)=C(/c2ccc(O)cc2)c2ccc(OCCN(C)C)cc2)cc1` ; TGI = 4.22 µM

Next:
Entry `O=S(=O)(N/N=C/c1ccc(Cl)c(Cl)c1)c1ccccc1` ; TGI = > 100 µM

Entry CO/C=C(/C(=O)OC)c1ccccc1[C@@H]1CC1c1cccc(F)c1 (stereo partly drawn) ; TGI = 81.6 µM

Entry `CN(Cc1ccc(Cl)cc1)c1ccc(CO)c(Cl)c1` ; TGI = 22.3 µM

Entry `O=[N+]([O-])c1ccccc1N=Nc1c(O)[nH]c2ccc(Br)cc12` ; TGI = 44.7 µM

Entry `CC(C)C[C@H](NC(=O)[C@H](Cc1ccccc1)NC(=O)CCc1ccccc1)B(O)O` ; TGI = < 0.01 µM

Entry CSc1nc(NC2OCC(OC(C)=O)C(OC(C)=O)C2OC(C)=O)c(N=C(C)C(C)=O)c(=O)[nH]1 (stereo not drawn) ; TGI = > 100 µM

Entry O=S1(=O)C(c2ccccc2)C(N2CCCCC2)C1C1CC2c3ccccc3C1c1ccccc12 (stereo not drawn) ; TGI = > 100 µM

Entry `N#Cc1n[nH]n(C2CCCCC2)c1=O` ; TGI = > 100 µM

Entry `Cc1nc2c(n1C)C(=O)c1nc(CBr)[nH]c(=O)c1C2=O` ; TGI = > 100 µM

Entry CCC1C(=O)OCc2c1cc1n(c2=O)Cc2cc3ccccc3nc2-1 (stereo not drawn) ; TGI = 13.7 µM

Entry C=[N+](CNC(=O)CNC(=O)C(Cc1ccc([N+](=O)[O-])cc1)NC(=O)OC(C)(C)C)C(=O)CNC(=O)C(Cc1ccc([N+](=O)[O-])cc1)NC(=O)OC(C)(C)C (stereo not drawn) ; TGI = > 100 µM

Entry `CCCCCc1nc2c(c3c1CCCC3)CCCC2` ; TGI = 29.4 µM

Entry COC(=O)CC1C(COC(C)=O)OC(n2cc(C)c(=O)[nH]c2=O)C1OC(C)=O (stereo not drawn) ; TGI = > 100 µM

Entry O=C1CS(=O)(=O)C(c2cccc(Oc3ccccc3)c2)N1c1cccc(Cl)c1 (stereo not drawn) ; TGI = 92.2 µM

Entry `O=c1c2ccccc2c(Br)c(Br)c2ccccc12` ; TGI = 16.3 µM

Entry CS(=O)(=O)OC1CN2CCC1CC2 (stereo not drawn) ; TGI = > 100 µM

====

Test system: HCT-116 colon
measurement.notes: NCI tumour cell line growth inhibition, 48 h
measured.property: TGI

Below, 10 molecules whose answers are already recorded.
Entry `COCO[C@@H]1C[C@H]2C(=O)N(COC)c3ccccc3C(=O)N2C1` ; TGI = > 100 µM

Entry `CCOC(=O)C[C@@H]1C2(C=C[C@@]13CO3)OCC(C)(C)CO2` ; TGI = > 100 µM

Entry C=C(C)C1Cc2c(cc(OC)c3c(=O)c4cccc(O)c4oc23)O1 (stereo not given) ; TGI = 39.4 µM

Entry COc1ccc2c(c1O)C13CCN(C)C(C2)C1CCC1(C3)OCCO1 (stereo not given) ; TGI = > 100 µM

Entry `COc1ccccc1/C=C(\C#N)C(=O)c1ccccc1` ; TGI = > 100 µM

Entry CC(=O)Oc1cc(C)c2c(c1OC(C)=O)CC1(O2)[C@@H](C)CCC2[C@@]3(C)CC[C@H](OC(C)=O)C(C)(C)C3CC[C@]21C (stereo not given in full) ; TGI = 13.3 µM

Entry CSc1nc(NC2OCC(OC(C)=O)C(OC(C)=O)C2OC(C)=O)c(N=C(C)C(C)=O)c(=O)[nH]1 (stereo not given) ; TGI = > 100 µM

Entry `C/C=C/C1=C(Cl)C(=O)[C@@H](Cl)[C@@]1(O)C(=O)OC` ; TGI = 11.7 µM

Entry N#CC1Cc2cc3c(cc21)OCO3 (stereo not given) ; TGI = > 100 µM

Entry CS(=O)(=O)OCC1OC(n2ccc(NC(=O)c3ccccc3)nc2=O)CC1OS(C)(=O)=O (stereo not given) ; TGI = > 100 µM

Next:
Entry `CCCc1cc(O)c2c3c(c(=O)oc2c1)CN(C)CC3` ; TGI = > 100 µM

Entry `CCN(CC)c1ccc(/C=C2/C[N+](C)(C)C/C(=C/c3ccc(N(CC)CC)cc3)C2=O)cc1` ; TGI = 7.77 µM

Entry `CC(C)Nc1ccc(Nc2ccccc2)cc1` ; TGI = 31.4 µM

Entry `Nc1nc2sc3ccccc3c(=O)n2n1` ; TGI = > 100 µM

Entry `CN(C)c1ccc(/C=C(\NC(=O)c2ccccc2)C(=O)NCC(=O)O)cc1` ; TGI = > 100 µM

Entry `Oc1ccc(CN2CCC(N3CCOCC3)CC2)c2cccnc12` ; TGI = > 100 µM

====

System: SF-539 CNS
measurement.notes: NCI tumour cell line growth inhibition, 48 h
measured.property: TGI

Below, 6 molecules whose answers are already recorded.
Entry `O=S(=O)(N/N=C/c1ccc(Cl)c(Cl)c1)c1ccccc1` ; TGI = > 100 µM

Entry `N#Cc1n[nH]n(C2CCCCC2)c1=O` ; TGI = > 100 µM

Entry `COc1cc(/C=N/n2c(Cc3ccc(Cl)cc3)n[nH]c2=O)cc(OC)c1OC` ; TGI = > 100 µM

Entry Cc1cc2c(cc1Cl)SC(c1ccccc1)C(=O)NS2(=O)=O (stereo unspecified) ; TGI = 73.3 µM

Entry `CCC[CH2][Sn]([CH2]CCC)([O]C(=O)c1cc(F)ccc1F)[O][Sn]([CH2]CCC)([CH2]CCC)[O]C(=O)c1cc(F)ccc1F` ; TGI = 1.22 µM

Entry CN(CCCCCl)P(=O)(OCc1ccc([N+](=O)[O-])o1)OCC1OC(n2ccc(N)nc2=O)C(F)(F)C1O (stereo unspecified) ; TGI = 0.427 µM

Next:
Entry `Clc1ccc(/C=C/c2cc(N3CCOCC3)c3cc(Cl)c(Cl)cc3n2)cc1` ; TGI = > 100 µM

Entry O=S1(=O)C(c2ccccc2)C(N2CCCCC2)C1C1CC2c3ccccc3C1c1ccccc12 (stereo unspecified) ; TGI = > 100 µM

Entry `C/C(=N\NC(N)=S)c1cc(C)c(C)cc1C` ; TGI = > 100 µM

Entry O=C1N(c2ccccc2)C2(c3ccccc3)CC3CCCC13S2 (stereo unspecified) ; TGI = > 100 µM

Entry `CCCCCCCC(=O)NCC(O)CNC(=O)CCCCCCC` ; TGI = > 100 µM

Measured values drawn from PubChem BioAssay (NCI) for this set.
